The measured values listed here are drawn from paper PMC5341405.

experiment_summary: Pharmacokinetics after i.v. administration
Format: in vivo, Wistar rats
study_conditions: Wistar, rat, plasma, iv, 2 mg/kg, 2 mg/kg i.v., 2-Comp; read-out: Vdss
reported_metric: Vd (L/kg)
Report the value in L/kg with no unit label.

Record request: Vd value, item "CC(C)=CCC1=C(O)C(=O)c2ccccc2C1=O"
0.17

----------
experiment_summary: Pharmacokinetics after oral administration
Type: in vivo, Wistar rats
study_conditions: Wistar, rat, plasma; 30 mg/kg oral LAP sodium salt, 1-Comp; read-out: Ke (converted)
Experimental: For administration to Wistar rats, LAP was dissolved in DMSO:Tween 80:glucose 5% in a proportion of 15:5:80 (v/v/v), resulting in a solution of 1 mg/ml (for intravenous (i.v.) administration) and another of 5 mg/ml (for oral administration). […] LAP and LAP sodium salt pharmacokinetic parameters after i.v. and oral administration were determined from individual plasma profiles by a noncompartmental approach (NCA). […] One- and two-compartment models with or without weighting schemes were evaluated. […]
Structures can show the parent of a compound that is named as a salt.
reported_metric: k el (s⁻¹)
Hi! Could you send only the number? It should be in s⁻¹, unit omitted.

Using the record for CC(C)=CCC1=C(O)C(=O)c2ccccc2C1=O [LAP sodium salt] , report its k el.
6.94e-05

----------
experiment_summary: Pharmacokinetics after i.v. administration
Assay type: in vivo, Wistar rats
study_conditions: Wistar, rat, plasma, iv, 2 mg/kg, 2 mg/kg i.v., 2-Comp
reported_metric: AUC(0-inf) (ng·h/mL)
Provide only the numeric value, understood in ng·h/mL.

What does the record list as AUC(0-inf) for "CC(C)=CCC1=C(O)C(=O)c2ccccc2C1=O" ?
56400

----------
experiment_summary: Pharmacokinetics after i.v. administration
Assay type: in vivo, Wistar rats
study_conditions: Wistar, rat, plasma, iv, 2 mg/kg, 2 mg/kg i.v., 2-Comp
Structures can show the parent of a compound that is named as a salt.
reported_metric: MRT (h)
Report the figure in h without appending any unit label.

Return reported MRT; argument: CC(C)=CCC1=C(O)C(=O)c2ccccc2C1=O [LAP sodium salt]
4.9

----------
experiment_summary: Pharmacokinetics after oral administration
Assay type: in vivo, Wistar rats
study_conditions: Wistar, rat, plasma; 30 mg/kg oral LAP sodium salt, NCA
Where a name gives a salt, the structure may show the parent alone.
reported_metric: Cmax (µg/mL)
Express your answer in µg/mL, writing the number without its unit.

Cmax lookup needed for CC(C)=CCC1=C(O)C(=O)c2ccccc2C1=O [LAP sodium salt] , thanks.
55.9

----------
experiment_summary: Pharmacokinetics after i.v. administration
Type: in vivo, Wistar rats
study_conditions: 2 mg/kg i.v., NCA
Counter-ions that a name gives are not always drawn.
This listing pairs molecules with measured CLtot.

INSERT INTO assay_data (molecule, readout_value) VALUES
  ('CC(C)=CCC1=C(O)C(=O)c2ccccc2C1=O [LAP]', '0.04 L/h/kg');

Give its CLtot value. Item: CC(C)=CCC1=C(O)C(=O)c2ccccc2C1=O [LAP sodium salt]
0.04 L/h/kg

----------
experiment_summary: Pharmacokinetics after oral administration
Assay type: in vivo, Wistar rats
study_conditions: Wistar, rat, plasma; 25 mg/kg oral LAP, 1-Comp; read-out: Ke (converted)
reported_metric: k el

Endpoint output: k el of "CC(C)=CCC1=C(O)C(=O)c2ccccc2C1=O" . Value?
4.44e-05 s⁻¹

----------
experiment_summary: Pharmacokinetics after oral administration
Format: in vivo, Wistar rats
study_conditions: Wistar, rat, plasma, po, rats; read-out: bioavailabilities after oral administration
Counter-ions that a name gives are not always drawn.
reported_metric: bioavailability (%)
Value expressed in %; do not type the unit.

Consider the molecule CC(C)=CCC1=C(O)C(=O)c2ccccc2C1=O [LAP sodium salt] and give its measured bioavailability.
42

----------
experiment_summary: Pharmacokinetics after oral administration
Assay type: in vivo, Wistar rats
study_conditions: Wistar, rat, plasma; 30 mg/kg oral LAP sodium salt, NCA
Counter-ions that a name gives are not always drawn.
reported_metric: half-life (h)
Respond numerically; units are h and should not be typed.

Find the recorded half-life belonging to CC(C)=CCC1=C(O)C(=O)c2ccccc2C1=O [LAP sodium salt] and report it.
4.3

----------
experiment_summary: Pharmacokinetics after i.v. administration
Format: in vivo, Wistar rats
study_conditions: Wistar, rat, plasma, 2 mg/kg; intravenous administration, rats; read-out: total clearance (converted)
Structures can show the parent of a compound that is named as a salt.
reported_metric: clearance (mL/min/kg)
Give the number; mL/min/kg is assumed, so skip it.

Which measured clearance value corresponds to CC(C)=CCC1=C(O)C(=O)c2ccccc2C1=O [LAP sodium salt] ?
0.667

----------
experiment_summary: Pharmacokinetics after i.v. administration
Format: in vivo, Wistar rats
study_conditions: 2 mg/kg i.v., 2-Comp
Structures can show the parent of a compound that is named as a salt.
reported_metric: CLtot (mL/min/kg)
Only the number, expressed in mL/min/kg, is required.

INSERT INTO assay_data (compound, readout_value) VALUES
  ('CC(C)=CCC1=C(O)C(=O)c2ccccc2C1=O [LAP]', 0.667);

Consider the compound CC(C)=CCC1=C(O)C(=O)c2ccccc2C1=O [LAP sodium salt] and give its measured CLtot.
0.667

----------
experiment_summary: Pharmacokinetics after oral administration
Type: in vivo, Wistar rats
study_conditions: Wistar, rat, plasma; 10 mg/kg oral LAP, 1-Comp; read-out: Ke (converted)
reported_metric: k el (s⁻¹)
Use s⁻¹ as the unit, but write only the number.

Given the molecule "CC(C)=CCC1=C(O)C(=O)c2ccccc2C1=O" , what is its reported k el?
4.72e-05
